# TARGET: G95A mutant ALS (Oryza sativa subsp. japonica, UniProt Q6K2E8, G95A)
# Construct: made in house; host or cells: Escherichia coli (pGEX-2T)
# Sequence (Q6K2E8 44-644 G95A): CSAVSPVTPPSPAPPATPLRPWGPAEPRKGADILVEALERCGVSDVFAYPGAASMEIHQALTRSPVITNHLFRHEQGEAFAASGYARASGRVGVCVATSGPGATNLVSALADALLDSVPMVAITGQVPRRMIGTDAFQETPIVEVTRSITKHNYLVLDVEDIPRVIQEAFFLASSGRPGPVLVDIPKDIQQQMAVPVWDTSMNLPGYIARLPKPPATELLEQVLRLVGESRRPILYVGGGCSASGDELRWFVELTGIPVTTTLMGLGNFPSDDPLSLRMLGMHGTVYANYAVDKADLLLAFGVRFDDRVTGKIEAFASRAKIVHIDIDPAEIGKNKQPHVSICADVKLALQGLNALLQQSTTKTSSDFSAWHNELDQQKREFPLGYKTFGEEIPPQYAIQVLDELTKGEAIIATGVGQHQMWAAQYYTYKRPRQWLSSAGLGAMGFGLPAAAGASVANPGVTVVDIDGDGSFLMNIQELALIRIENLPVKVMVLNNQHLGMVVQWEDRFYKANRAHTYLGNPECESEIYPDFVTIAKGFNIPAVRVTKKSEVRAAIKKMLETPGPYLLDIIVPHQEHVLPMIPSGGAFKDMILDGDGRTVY
# ASSAY REMARKS: Inhibition of expressed GST fusion G95A mutant ALS activity by herbicides
# Format: biochemical, rice
# RUN PARAMETERS: 50% inhibitory concentration (μM) G95A mutant, G95A mutant ALS (Table 5)
# IC50 annotations
Response body: numeric value in µM, unit text excluded.

Some solved entries appear below for comparison.
COc1nc(C)nc(NC(=O)NS(=O)(=O)c2ccccc2Cl)n1 ... 0.0025
COC(=O)c1ccccc1CS(=O)(=O)NC(=O)Nc1nc(OC)cc(OC)n1 ... 0.28
CC(C)C1(C)N=C(c2ncccc2C(=O)O)NC1=O (stereo not shown) ... 47

Moving on to another compound below.
QUERY: Which IC50 value belongs to CC(C)C1(C)N=C(c2nc3ccccc3cc2C(=O)O)NC1=O (stereo not shown) ?
RESULT: 1.8
